# System: Escherichia coli TOP10
# Protocol Text: shrunken log2 fold change of peptide-encoding DNA abundance (4.5 h post-induction vs induction); higher = less antimicrobial activity (less host growth inhibition)
# Experimental Parameters: time post-induction: 4.5 h; library: site-saturation at positions 5, 18, 19, 20
Recorded Metric: shrunken log2 fold change

[[record]]
residue_codes = "RRIRQRPPRLPRPRPRPTDYPRP"
quantitative_result = -0.116

[[record]]
residue_codes = "RRIRIRPPRLPRPRPRPDYGPRP"
quantitative_result = -0.117

[[record]]
residue_codes = "RRIRVRPPRLPRPRPRPMEHPRP"
quantitative_result = 0.0534

[[record]]
residue_codes = "RRIRARPPRLPRPRPRPDLFPRP"
quantitative_result = 1.09

[[record]]
residue_codes = "RRIRPRPPRLPRPRPRPAASPRP"
quantitative_result = -0.0885

[[record]]
residue_codes = "RRIRPRPPRLPRPRPRPRSQPRP"
quantitative_result = 0.263

[[record]]
residue_codes = "RRIRLRPPRLPRPRPRPLSRPRP"
quantitative_result = -0.247

[[record]]
residue_codes = "RRIRPRPPRLPRPRPRPFDYPRP"
quantitative_result = -0.391

[[record]]
residue_codes = "RRIRFRPPRLPRPRPRPGKVPRP"
quantitative_result = -0.216

[[record]]
residue_codes = "RRIRWRPPRLPRPRPRPRMMPRP"
quantitative_result = 0.0684

[[record]]
residue_codes = "RRIRQRPPRLPRPRPRPQWRPRP"
quantitative_result = 0.419

[[record]]
residue_codes = "RRIRGRPPRLPRPRPRPNDAPRP"
quantitative_result = 0.0548

[[record]]
residue_codes = "RRIRTRPPRLPRPRPRPACDPRP"
quantitative_result = 0.139

[[record]]
residue_codes = "RRIRHRPPRLPRPRPRPQITPRP"
quantitative_result = -0.884

[[record]]
residue_codes = "RRIRVRPPRLPRPRPRPDYPPRP"
quantitative_result = -0.177

[[record]]
residue_codes = "RRIRYRPPRLPRPRPRPQLGPRP"
quantitative_result = -0.238

[[record]]
residue_codes = "RRIRTRPPRLPRPRPRPSHFPRP"
quantitative_result = -0.315

[[record]]
residue_codes = "RRIRQRPPRLPRPRPRPSKSPRP"
quantitative_result = -0.332

[[record]]
residue_codes = "RRIRLRPPRLPRPRPRPFRYPRP"
quantitative_result = -0.021

[[record]]
residue_codes = "RRIRLRPPRLPRPRPRPFRQPRP"
quantitative_result = 0.0662

[[record]]
residue_codes = "RRIRSRPPRLPRPRPRPEKHPRP"
quantitative_result = -0.211

[[record]]
residue_codes = "RRIRMRPPRLPRPRPRPEELPRP"
quantitative_result = 0.123

[[record]]
residue_codes = "RRIRARPPRLPRPRPRPWNSPRP"
quantitative_result = -0.222

[[record]]
residue_codes = "RRIRWRPPRLPRPRPRPHWEPRP"
quantitative_result = 0.323

[[record]]
residue_codes = "RRIRTRPPRLPRPRPRPNGGPRP"
quantitative_result = 0.033

[[record]]
residue_codes = "RRIRTRPPRLPRPRPRPLNIPRP"
quantitative_result = -0.36

[[record]]
residue_codes = "RRIRNRPPRLPRPRPRPMREPRP"
quantitative_result = 0.13

[[record]]
residue_codes = "RRIRQRPPRLPRPRPRPNMVPRP"
quantitative_result = -0.0131

[[record]]
residue_codes = "RRIRTRPPRLPRPRPRPCDFPRP"
quantitative_result = 0.042

[[record]]
residue_codes = "RRIRWRPPRLPRPRPRPKTVPRP"
quantitative_result = 0.227

[[record]]
residue_codes = "RRIRTRPPRLPRPRPRPHHVPRP"
quantitative_result = 0.0387

[[record]]
residue_codes = "RRIRTRPPRLPRPRPRPPRDPRP"
quantitative_result = 0.4


----------
# Test system: Escherichia coli TOP10;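 also: peptides expressed intracellularly from a pBAD plasmid library in pooled LB shake-flask culture, induced with 0.3% L-arabinose, DNA abundance read by NGS, three biological replicates, DESeq2 with apeglm shrinkage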
# Protocol Text: shrunken log2 fold change of peptide-encoding DNA abundance (4.5 h post-induction vs induction); higher = less antimicrobial activity (less host growth inhibition)
# Experimental Parameters: time post-induction: 4.5 h; library: site-saturation at positions 5, 18, 19, 20
// values below are reported shrunken log2 fold change
Recorded Metric: shrunken log2 fold change

[[record]]
residue_codes = "RRIRSRPPRLPRPRPRPMRDPRP"
target_of_assay = "Escherichia coli TOP10"
recorded_metric = "shrunken log2 fold change"
quantitative_result = 0.0126

[[record]]
residue_codes = "RRIRTRPPRLPRPRPRPCTRPRP"
target_of_assay = "Escherichia coli TOP10"
recorded_metric = "shrunken log2 fold change"
quantitative_result = -0.287

[[record]]
residue_codes = "RRIRWRPPRLPRPRPRPKTGPRP"
target_of_assay = "Escherichia coli TOP10"
recorded_metric = "shrunken log2 fold change"
quantitative_result = 0.491

[[record]]
residue_codes = "RRIRVRPPRLPRPRPRPLIQPRP"
target_of_assay = "Escherichia coli TOP10"
recorded_metric = "shrunken log2 fold change"
quantitative_result = -0.351

[[record]]
residue_codes = "RRIRTRPPRLPRPRPRPMWMPRP"
target_of_assay = "Escherichia coli TOP10"
recorded_metric = "shrunken log2 fold change"
quantitative_result = -0.177

[[record]]
residue_codes = "RRIRVRPPRLPRPRPRPFRVPRP"
target_of_assay = "Escherichia coli TOP10"
recorded_metric = "shrunken log2 fold change"
quantitative_result = -0.266

[[record]]
residue_codes = "RRIRDRPPRLPRPRPRPWAQPRP"
target_of_assay = "Escherichia coli TOP10"
recorded_metric = "shrunken log2 fold change"
quantitative_result = 0.18

[[record]]
residue_codes = "RRIRTRPPRLPRPRPRPWWAPRP"
target_of_assay = "Escherichia coli TOP10"
recorded_metric = "shrunken log2 fold change"
quantitative_result = -0.134

[[record]]
residue_codes = "RRIRSRPPRLPRPRPRPRNMPRP"
target_of_assay = "Escherichia coli TOP10"
recorded_metric = "shrunken log2 fold change"
quantitative_result = -0.53

[[record]]
residue_codes = "RRIRLRPPRLPRPRPRPSHAPRP"
target_of_assay = "Escherichia coli TOP10"
recorded_metric = "shrunken log2 fold change"
quantitative_result = 0.212

[[record]]
residue_codes = "RRIRNRPPRLPRPRPRPLITPRP"
target_of_assay = "Escherichia coli TOP10"
recorded_metric = "shrunken log2 fold change"
quantitative_result = -0.173

[[record]]
residue_codes = "RRIRDRPPRLPRPRPRPLWCPRP"
target_of_assay = "Escherichia coli TOP10"
recorded_metric = "shrunken log2 fold change"
quantitative_result = -0.15

[[record]]
residue_codes = "RRIRRRPPRLPRPRPRPCQRPRP"
target_of_assay = "Escherichia coli TOP10"
recorded_metric = "shrunken log2 fold change"
quantitative_result = 0.0494

[[record]]
residue_codes = "RRIRDRPPRLPRPRPRPIHAPRP"
target_of_assay = "Escherichia coli TOP10"
recorded_metric = "shrunken log2 fold change"
quantitative_result = 0.125

[[record]]
residue_codes = "RRIRVRPPRLPRPRPRPTPIPRP"
target_of_assay = "Escherichia coli TOP10"
recorded_metric = "shrunken log2 fold change"
quantitative_result = 0.186

[[record]]
residue_codes = "RRIRMRPPRLPRPRPRPTDVPRP"
target_of_assay = "Escherichia coli TOP10"
recorded_metric = "shrunken log2 fold change"
quantitative_result = 0.141

[[record]]
residue_codes = "RRIRQRPPRLPRPRPRPNDVPRP"
target_of_assay = "Escherichia coli TOP10"
recorded_metric = "shrunken log2 fold change"
quantitative_result = 0.00724

[[record]]
residue_codes = "RRIRVRPPRLPRPRPRPDINPRP"
target_of_assay = "Escherichia coli TOP10"
recorded_metric = "shrunken log2 fold change"
quantitative_result = -0.00784

[[record]]
residue_codes = "RRIRTRPPRLPRPRPRPDWRPRP"
target_of_assay = "Escherichia coli TOP10"
recorded_metric = "shrunken log2 fold change"
quantitative_result = 0.0352

[[record]]
residue_codes = "RRIRLRPPRLPRPRPRPHEVPRP"
target_of_assay = "Escherichia coli TOP10"
recorded_metric = "shrunken log2 fold change"
quantitative_result = -0.0201

[[record]]
residue_codes = "RRIRHRPPRLPRPRPRPPWRPRP"
target_of_assay = "Escherichia coli TOP10"
recorded_metric = "shrunken log2 fold change"
quantitative_result = 0.538

[[record]]
residue_codes = "RRIRRRPPRLPRPRPRPFHSPRP"
target_of_assay = "Escherichia coli TOP10"
recorded_metric = "shrunken log2 fold change"
quantitative_result = 0.00922

[[record]]
residue_codes = "RRIRHRPPRLPRPRPRPGWMPRP"
target_of_assay = "Escherichia coli TOP10"
recorded_metric = "shrunken log2 fold change"
quantitative_result = 0.0172

[[record]]
residue_codes = "RRIRARPPRLPRPRPRPMWRPRP"
target_of_assay = "Escherichia coli TOP10"
recorded_metric = "shrunken log2 fold change"
quantitative_result = 0.248

[[record]]
residue_codes = "RRIRKRPPRLPRPRPRPDLDPRP"
target_of_assay = "Escherichia coli TOP10"
recorded_metric = "shrunken log2 fold change"
quantitative_result = 0.109

[[record]]
residue_codes = "RRIRWRPPRLPRPRPRPPTDPRP"
target_of_assay = "Escherichia coli TOP10"
recorded_metric = "shrunken log2 fold change"
quantitative_result = 0.415

[[record]]
residue_codes = "RRIRKRPPRLPRPRPRPDKWPRP"
target_of_assay = "Escherichia coli TOP10"
recorded_metric = "shrunken log2 fold change"
quantitative_result = 0.429

[[record]]
residue_codes = "RRIRNRPPRLPRPRPRPRAAPRP"
target_of_assay = "Escherichia coli TOP10"
recorded_metric = "shrunken log2 fold change"
quantitative_result = 0.601

[[record]]
residue_codes = "RRIRARPPRLPRPRPRPWKHPRP"
target_of_assay = "Escherichia coli TOP10"
recorded_metric = "shrunken log2 fold change"
quantitative_result = -0.0402

[[record]]
residue_codes = "RRIRWRPPRLPRPRPRPNNWPRP"
target_of_assay = "Escherichia coli TOP10"
recorded_metric = "shrunken log2 fold change"
quantitative_result = -0.0483

[[record]]
residue_codes = "RRIRDRPPRLPRPRPRPDWLPRP"
target_of_assay = "Escherichia coli TOP10"
recorded_metric = "shrunken log2 fold change"
quantitative_result = 0.34

[[record]]
residue_codes = "RRIRCRPPRLPRPRPRPTQTPRP"
target_of_assay = "Escherichia coli TOP10"
recorded_metric = "shrunken log2 fold change"
quantitative_result = 0.286

